Molecular target: IDH1 wt/IDH1 R132C heterodimer (Homo sapiens (Human), UniProt O75874, R132C)
Sequence (O75874 whole entry R132C): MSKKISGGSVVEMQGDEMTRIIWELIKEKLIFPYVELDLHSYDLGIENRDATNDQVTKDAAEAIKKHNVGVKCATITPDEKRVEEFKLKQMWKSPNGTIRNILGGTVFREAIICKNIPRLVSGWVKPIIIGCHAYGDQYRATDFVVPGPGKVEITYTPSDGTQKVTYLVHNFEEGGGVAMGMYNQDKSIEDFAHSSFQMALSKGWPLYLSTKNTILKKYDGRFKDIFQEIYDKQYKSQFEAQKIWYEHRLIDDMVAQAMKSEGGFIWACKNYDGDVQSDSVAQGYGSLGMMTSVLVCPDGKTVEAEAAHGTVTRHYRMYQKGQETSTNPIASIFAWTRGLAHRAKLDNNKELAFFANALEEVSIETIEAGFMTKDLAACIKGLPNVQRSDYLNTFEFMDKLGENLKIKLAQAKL
Sequence (O75874 whole entry, stated change not applied): as the sequence (O75874 whole entry R132C) above, with C132R counted along it
Experiment: In vitro assay for IDH1m R132C inhibitors, IDH1 wt/IDH1 R132C heterodimer, NADPH depletion (diaphorase/resazurin)
Conditions: NADPH/NADP
Examples of molecules with documented IC50 follow.

Guide cases for IC50, answers given:
                                   molecule                               system_name  quantity_name  recorded_result
0  N#CC1(c2cc(Nc3nc(NC4CCC(F)(F)C4)nc(-c4cccc(Cl)n4)n3)ccn2)CC1 (centres unmarked)  IDH1 wt/IDH1 R132C heterodimer (Homo sapiens (Human), UniProt O75874, R132C)           IC50          < 50 nM
1  FC1(F)CCC(Nc2nc(NC3CCC(F)(F)CC3)nc(-n3cc(Cl)cn3)n2)CC1  IDH1 wt/IDH1 R132C heterodimer (Homo sapiens (Human), UniProt O75874, R132C)           IC50   100 to 1000 nM

With IDH1 wt/IDH1 R132C heterodimer (Homo sapiens (Human), UniProt O75874, R132C) as the test system, `C[C@@H](Nc1nc(NCC(C)(C)C#N)nc(-c2cccc(C(F)(F)F)n2)n1)C1CC1` showed IC50 of 100 to 1000 nM

IC50 on IDH1 wt/IDH1 R132C heterodimer (Homo sapiens (Human), UniProt O75874, R132C) for `CC(C)(C)Nc1nc(Nc2cccc(C#N)c2)nc(-c2cccc(C(F)(F)F)n2)n1` is < 50 nM

With IDH1 wt/IDH1 R132C heterodimer (Homo sapiens (Human), UniProt O75874, R132C) as the test system, `FC1(F)CC(Nc2nc(NC3CC(F)(F)C3)nc(-n3ccc(C(F)(F)F)n3)n2)C1` showed IC50 of < 50 nM

IDH1 wt/IDH1 R132C heterodimer (Homo sapiens (Human), UniProt O75874, R132C) assay, molecule `FC1(F)CC(Nc2nc(NC3CC(F)(F)C3)nc(-c3csc(C(F)(F)F)n3)n2)C1` , recorded IC50 = < 50 nM

Result for CC(C)(C)OC(=O)N1CCC(Nc2nc(NC3CCC(F)(F)C3)nc(-c3cccc(C(F)(F)F)n3)n2)C1 (centres unmarked) [Compound 53] , tested on IDH1 wt/IDH1 R132C heterodimer (Homo sapiens (Human), UniProt O75874, R132C), IC50: 50 to 100 nM

Simply: FC1(F)CCC(Nc2nc(NC3Cc4ccc(Cl)cc4C3)nc(-c3cccc(C(F)(F)F)n3)n2)C1 (centres unmarked) , IDH1 wt/IDH1 R132C heterodimer (Homo sapiens (Human), UniProt O75874, R132C), IC50 = < 50 nM

Observed IC50 on IDH1 wt/IDH1 R132C heterodimer (Homo sapiens (Human), UniProt O75874, R132C), entry FC1(F)CCC(Nc2nc(NC3CCN(c4ncccn4)C3)nc(-c3cccc(C(F)(F)F)n3)n2)C1 (centres unmarked) , equals 50 to 100 nM
